target: Sodium-dependent dopamine transporter (Rattus norvegicus); assay: Inhibition of [3H]dopamine uptake at striatal nerve endings by dopamine transporter
Sequence (P23977 whole entry): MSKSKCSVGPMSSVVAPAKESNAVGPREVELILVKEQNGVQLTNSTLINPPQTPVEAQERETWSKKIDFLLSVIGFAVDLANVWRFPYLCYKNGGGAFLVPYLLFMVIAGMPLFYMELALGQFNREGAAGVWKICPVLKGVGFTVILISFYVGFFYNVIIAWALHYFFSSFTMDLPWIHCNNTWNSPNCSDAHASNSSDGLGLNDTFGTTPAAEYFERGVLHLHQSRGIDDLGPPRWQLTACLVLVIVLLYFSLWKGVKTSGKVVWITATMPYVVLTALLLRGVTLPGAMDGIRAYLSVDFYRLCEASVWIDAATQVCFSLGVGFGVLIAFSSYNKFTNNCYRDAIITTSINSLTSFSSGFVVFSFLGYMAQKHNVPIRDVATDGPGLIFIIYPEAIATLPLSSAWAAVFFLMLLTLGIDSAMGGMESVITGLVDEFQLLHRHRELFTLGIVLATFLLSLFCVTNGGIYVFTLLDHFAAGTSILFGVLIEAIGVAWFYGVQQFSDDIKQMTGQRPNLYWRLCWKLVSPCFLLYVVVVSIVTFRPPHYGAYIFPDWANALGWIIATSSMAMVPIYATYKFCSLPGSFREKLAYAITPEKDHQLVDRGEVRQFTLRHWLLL
Reported log10(Ki) values follow for various compounds
Answers are given as log10 of Ki in nM.

[
  {
    "COMPOUND": "Fc1ccc(C2C3CC[C@H](C[C@H]2c2ccc(F)cc2)N3CCCc2ccccc2)cc1 (stereo not given in full)",
    "log10(Ki)": 1.63
  },
  {
    "COMPOUND": "Cc1ccc([C@@H]2C[C@H]3CCC(C2c2ccccc2)N3C)cc1 (stereo not given in full)",
    "log10(Ki)": 0.66
  },
  {
    "COMPOUND": "Fc1ccc(C2C3CC[C@H](C[C@H]2c2ccc(F)cc2)N3Cc2ccccc2)cc1 (stereo not given in full)",
    "log10(Ki)": 2.23
  },
  {
    "COMPOUND": "Fc1ccc(OCCN2C3CC[C@@H]2C[C@@H](c2ccc(F)cc2)C3c2ccc(F)cc2)cc1 (stereo not given in full)",
    "log10(Ki)": 1.43
  },
  {
    "COMPOUND": "Cc1ccc([C@@H]2C[C@H]3CCC(C2c2ccccc2)N3CCc2ccccc2)cc1 (stereo not given in full)",
    "log10(Ki)": 0.20
  }
]

// query log10(Ki) value for entry Fc1ccc(C2C3CCC(C[C@H]2c2ccc(F)cc2)N3)cc1 (stereo not given in full)
1.23

// query log10(Ki) value for entry Fc1ccc(C2C3CC[C@H](C[C@H]2c2ccc(F)cc2)N3CCCCc2ccccc2)cc1 (stereo not given in full)
2.32

// query log10(Ki) value for entry Fc1ccc(C2C3CC[C@H](C[C@H]2c2ccc(F)cc2)N3CCc2ccccc2)cc1 (stereo not given in full)
1.41

// query log10(Ki) value for entry CN1C2CC[C@@H]1C[C@@H](c1ccc(F)cc1)C2c1ccc(F)cc1 (stereo not given in full)
1.15
